Where do these numbers come from? They come from ChEMBL document CHEMBL4219268.

method-description: Drug metabolism in human liver microsomes assessed as metabolic rate per mg protein at 1 uM measured at 3 to 30 mins by LC-MS/MS analysis
Type: ADME, microsome
measured-parameter: Drug metabolism (pmol/min)
Field format: number, assumed pmol/min, no unit text.

Consider the reported Drug metabolism for these molecules:
Cc1cc(OCC(F)CN2CCN(c3ccc(Cc4ccc(F)cc4)cc3)CC2)cc(C)n1.Cl.Cl.Cl (centres undefined): 41
Cc1cc(S(N)(=O)=O)ccc1OCC(F)CN1CCN(c2ccc(Cc3ccc(F)cc3)cc2)CC1 (centres undefined): 17
Cl.OC(COc1ccccc1)CN1CCN(c2ccc(Cc3ccc(F)cc3)cc2)CC1 (centres undefined): 28

// moving on: another record for Drug metabolism
Problem: Which Drug metabolism is reported for this molecule? Cc1cc(OC[C@@H](F)CN2CCN(c3ccc(Cc4ccc(F)cc4)cc3)CC2)cc(C)n1.Cl
Result: 37
